- subject of test: recombinant human AMPK complex 1 (containing α1β1γ1) (Homo sapiens, UniProt Q13131+Q9Y478)
- Sequence (Q13131 whole entry): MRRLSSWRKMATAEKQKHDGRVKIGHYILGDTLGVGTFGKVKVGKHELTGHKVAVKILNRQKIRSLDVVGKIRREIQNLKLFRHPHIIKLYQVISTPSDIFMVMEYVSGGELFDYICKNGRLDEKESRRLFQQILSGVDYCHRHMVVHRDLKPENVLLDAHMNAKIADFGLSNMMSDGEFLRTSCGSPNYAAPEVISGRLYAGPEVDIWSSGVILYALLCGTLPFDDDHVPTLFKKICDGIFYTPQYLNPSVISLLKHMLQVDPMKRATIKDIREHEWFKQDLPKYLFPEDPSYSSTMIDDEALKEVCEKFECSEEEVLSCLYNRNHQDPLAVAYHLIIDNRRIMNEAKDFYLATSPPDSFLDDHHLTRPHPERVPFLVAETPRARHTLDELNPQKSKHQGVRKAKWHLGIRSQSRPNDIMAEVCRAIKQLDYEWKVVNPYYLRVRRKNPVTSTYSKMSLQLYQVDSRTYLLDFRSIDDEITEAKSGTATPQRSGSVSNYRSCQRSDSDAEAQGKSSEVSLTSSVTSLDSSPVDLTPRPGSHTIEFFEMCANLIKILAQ
- Sequence (Q9Y478 whole entry): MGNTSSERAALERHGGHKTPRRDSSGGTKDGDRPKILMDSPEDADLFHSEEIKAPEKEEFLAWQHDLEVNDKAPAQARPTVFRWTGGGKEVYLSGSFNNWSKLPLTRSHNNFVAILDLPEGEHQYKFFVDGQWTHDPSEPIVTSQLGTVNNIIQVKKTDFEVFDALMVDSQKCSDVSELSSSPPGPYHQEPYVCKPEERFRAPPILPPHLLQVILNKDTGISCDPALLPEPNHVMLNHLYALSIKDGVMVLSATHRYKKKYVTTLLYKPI
- Sequence (P54619 whole entry partner): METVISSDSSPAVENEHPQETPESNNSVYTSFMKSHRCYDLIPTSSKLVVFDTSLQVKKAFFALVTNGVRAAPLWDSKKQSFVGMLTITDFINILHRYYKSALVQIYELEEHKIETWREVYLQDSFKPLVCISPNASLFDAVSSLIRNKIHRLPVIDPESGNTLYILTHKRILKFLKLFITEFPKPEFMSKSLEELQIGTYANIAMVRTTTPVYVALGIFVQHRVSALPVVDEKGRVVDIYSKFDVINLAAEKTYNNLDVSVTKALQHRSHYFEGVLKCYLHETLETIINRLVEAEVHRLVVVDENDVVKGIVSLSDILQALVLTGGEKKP
- assay text: […] (in vitro AMPK activation assay)
- Format: biochemical
- protocol conditions: recombinant human AMPK complex 1 (α1β1γ1); basal activity subtracted; read-out: % Maximum AMP Activation of human AMPK Complex 1
Where a name gives a salt, the structure may show the parent alone.
readout kind: Emax

molecule	result value
COC(=O)c1cc(Oc2nc3cc(C#Cc4ccccc4C)c(Cl)cc3[nH]2)ccc1C	> 80%
Cc1ccc(Oc2nc3cc(-c4cnc(N5CCCC5)nc4)c(Cl)cc3[nH]2)cc1C(=O)O [Example 257, trifluoroacetate]	> 80%
Cc1ccc(Oc2nc3cc(-c4ccc5c(c4)CCN5C)c(Cl)cc3[nH]2)cc1C(=O)O	> 80%
Cc1ccc(Oc2nc3cc(-c4ccc5c(C)noc5c4)c(Cl)cc3[nH]2)cc1C(=O)O	> 80%
Cc1ccc(Oc2nc3cc(-c4cnn(CC(C)C)c4)c(Cl)cc3[nH]2)cc1C(=O)O	> 80%
COC(=O)c1cc(Oc2nc3cc(C#Cc4ccc(F)cc4)c(Cl)cc3[nH]2)ccc1C	> 80%
O=C(O)c1cc(Oc2nc3cc(-c4ccccc4)c(Cl)cc3[nH]2)ccc1Cl	> 80%
COC(=O)c1cc(Oc2nc3cc(-c4ccc(-c5ccc(OC)nc5)cc4)c(Cl)cc3[nH]2)cc(C)c1C	> 80%

Source of measurements: patent US8394969B2
